Values from ChEMBL document CHEMBL3425409

# system name: Prostaglandin G/H synthase 1 (Ovis aries) (UniProt P05979)
# Sequence (P05979 whole entry): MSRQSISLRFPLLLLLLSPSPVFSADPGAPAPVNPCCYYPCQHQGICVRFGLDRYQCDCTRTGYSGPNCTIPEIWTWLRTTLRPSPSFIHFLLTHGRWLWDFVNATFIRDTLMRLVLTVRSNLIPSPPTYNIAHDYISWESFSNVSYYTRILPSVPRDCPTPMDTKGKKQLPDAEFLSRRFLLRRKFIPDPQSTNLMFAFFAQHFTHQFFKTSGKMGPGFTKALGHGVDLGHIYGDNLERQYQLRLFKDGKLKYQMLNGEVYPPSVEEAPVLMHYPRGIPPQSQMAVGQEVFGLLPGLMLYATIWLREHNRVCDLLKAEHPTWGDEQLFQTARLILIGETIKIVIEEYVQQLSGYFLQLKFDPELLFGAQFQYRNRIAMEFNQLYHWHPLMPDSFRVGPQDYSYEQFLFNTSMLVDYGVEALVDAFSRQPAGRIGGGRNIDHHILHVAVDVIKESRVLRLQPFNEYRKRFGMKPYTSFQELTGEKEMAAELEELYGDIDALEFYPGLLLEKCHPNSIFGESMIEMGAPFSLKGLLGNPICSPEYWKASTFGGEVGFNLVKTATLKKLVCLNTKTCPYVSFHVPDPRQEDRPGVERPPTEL
# protocol notes: Inhibition of ovine COX-1 assessed as inhibition of PGH2 production using arachidonic acid as substrate at 50 uM by TMPD oxidation based colorimetric assay
Activity calls are given as the source filed them. The calls are words filed in the database; no cut-off is given here.
quantity name: inhibition

Some solved cases for reference:
structure smiles string | result
Clc1ccc(-c2noc(CBr)c2-c2ccccc2)o1 | 37%
COc1ccc(-c2nnn(-c3ccc(OC)cc3)c2C)cc1 | 25%
COc1ccc(-n2nnc(-c3ccc(S(C)(=O)=O)cc3)c2C)cc1 | 20%
COc1ccc(-n2nnc(-c3ccc(SC)cc3)c2C)cc1 | inactive

Fill in inhibition for record Cc1c(-c2ccccc2)nnn1-c1ccc(S(C)(=O)=O)cc1 21%

Fill in inhibition for record CSc1ccc(-n2nnc(-c3ccccc3)c2C)cc1 inactive

----------
# system name: Prostaglandin G/H synthase 2 (Ovis aries)
# protocol notes: Inhibition of ovine COX-2 assessed as inhibition of PGH2 production using arachidonic acid as substrate at 50 uM by TMPD oxidation based colorimetric assay
The source made the active and inactive calls. The calls are words filed in the database; no cut-off is given here.
quantity name: inhibition

structure smiles string | inhibition
COc1ccc(-n2nnc(-c3ccc(N)cc3)c2C)cc1 | inactive
COc1ccc(-n2nc(C(F)(F)F)cc2-c2ccco2)cc1 | 28%
Cc1c(-c2ccco2)nnn1-c1ccc([N+](=O)[O-])cc1 | 40%
COc1ccc(-c2nnn(-c3ccc(SC)cc3)c2C)cc1 | inactive
Cc1c(-c2ccccc2)nnn1-c1ccc(O)cc1 | 26%
COc1ccc(-n2nnc(-c3ccco3)c2C)cc1 | inactive
Cc1c(-c2ccccc2)nnn1-c1ccc(S(C)(=O)=O)cc1 | 20%
COc1ccc(-c2nnn(-c3ccc(S(C)(=O)=O)cc3)c2C)cc1 | inactive

Fill in inhibition for record Cc1c(-c2ccccc2)nnn1-c1ccc([N+](=O)[O-])cc1 inactive

Fill in inhibition for record COc1ccc(-n2nnc(-c3ccc([N+](=O)[O-])cc3)c2C)cc1 inactive

Fill in inhibition for record Cc1c(-c2ccccc2)nnn1-c1ccc(F)cc1 inactive

Fill in inhibition for record COc1ccc(-n2nnc(-c3ccc(Cl)o3)c2C)cc1 inactive

Fill in inhibition for record Cc1c(-c2ccccc2)nnn1-c1ccc(Cl)cc1 inactive

Fill in inhibition for record COc1ccc(-n2nnc(-c3ccccc3)c2C)cc1 35%

Fill in inhibition for record COc1ccc(-n2nnc(-c3ccc(S(C)(=O)=O)cc3)c2C)cc1 inactive

Fill in inhibition for record CSc1ccc(-n2nnc(-c3ccccc3)c2C)cc1 14%

Fill in inhibition for record COc1ccc(-c2nnn(-c3ccc(OC)cc3)c2C)cc1 inactive

Fill in inhibition for record Cc1c(-c2ccccc2)nnn1-c1ccc(N)cc1 inactive

Fill in inhibition for record COc1ccc(-n2nnc(-c3ccc(SC)cc3)c2C)cc1 inactive

----------
# system name: Prostaglandin G/H synthase 2 (Ovis aries, UniProt P79208)
# Sequence (P79208 whole entry): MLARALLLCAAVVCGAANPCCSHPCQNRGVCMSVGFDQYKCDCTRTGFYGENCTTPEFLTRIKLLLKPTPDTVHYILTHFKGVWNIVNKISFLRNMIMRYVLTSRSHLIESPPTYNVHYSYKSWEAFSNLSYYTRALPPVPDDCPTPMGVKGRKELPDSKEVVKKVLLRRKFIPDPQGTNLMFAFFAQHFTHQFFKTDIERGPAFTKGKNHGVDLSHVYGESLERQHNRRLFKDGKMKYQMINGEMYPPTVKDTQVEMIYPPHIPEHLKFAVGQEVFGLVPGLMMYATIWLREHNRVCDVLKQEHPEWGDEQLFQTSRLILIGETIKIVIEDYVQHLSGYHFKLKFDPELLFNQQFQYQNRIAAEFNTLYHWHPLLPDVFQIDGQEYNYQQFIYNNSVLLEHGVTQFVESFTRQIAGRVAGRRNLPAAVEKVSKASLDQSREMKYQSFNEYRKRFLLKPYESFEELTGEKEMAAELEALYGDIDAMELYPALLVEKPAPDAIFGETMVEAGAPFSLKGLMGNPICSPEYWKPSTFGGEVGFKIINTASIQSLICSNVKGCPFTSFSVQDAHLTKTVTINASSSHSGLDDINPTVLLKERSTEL
# protocol notes: Inhibition of ovine COX-2 assessed as inhibition of PGH2 production using arachidonic acid as substrate by TMPD oxidation based colorimetric assay
quantity name: pIC50
pIC50 (log units): -log10 of the concentration in mol/L.

Fill in pIC50 for record COc1ccc(-c2noc(CC(=O)O)c2-c2ccc(OC)cc2)cc1 6.36

----------
# system name: Prostaglandin G/H synthase 1 (Ovis aries) (UniProt P05979)
# protocol notes: Inhibition of ovine COX-1 assessed as inhibition of PGH2 production using arachidonic acid as substrate at 50 uM by TMPD oxidation based colorimetric assay
Activity calls are given as the source filed them. No cut-off for these calls is given here.
quantity name: inhibition

Some solved cases for reference:
structure smiles string | inhibition
COc1ccc(-n2nnc(-c3ccc([N+](=O)[O-])cc3)c2C)cc1 | 20%
Cc1c(-c2ccccc2)nnn1-c1ccc(Cl)cc1 | inactive
Cc1onc(-c2ccc(Cl)o2)c1-c1ccccc1 | 89%
COc1ccc(-n2nnc(-c3ccc(N)cc3)c2C)cc1 | 100%
N#CCc1onc(-c2ccc(Cl)o2)c1-c1ccccc1 | 11%

Fill in inhibition for record Cc1c(-c2ccccc2)nnn1-c1ccc(N)cc1 56%

Fill in inhibition for record COc1ccc(-c2nnn(-c3ccc(S(C)(=O)=O)cc3)c2C)cc1 55%

Fill in inhibition for record Cc1c(-c2ccccc2)nnn1-c1ccc(O)cc1 inactive

Fill in inhibition for record COc1ccc(-n2nnc(-c3ccc(Cl)o3)c2C)cc1 45%

Fill in inhibition for record Cc1c(-c2ccccc2)nnn1-c1ccc([N+](=O)[O-])cc1 inactive

Fill in inhibition for record COC(=O)Cc1onc(-c2ccc(Cl)o2)c1-c1ccccc1 7%

Fill in inhibition for record Cc1c(-c2ccco2)nnn1-c1ccc([N+](=O)[O-])cc1 inactive

Fill in inhibition for record Cc1c(-c2ccccc2)nnn1-c1ccc(F)cc1 inactive

Fill in inhibition for record COc1ccc(-c2nnn(-c3ccc(SC)cc3)c2C)cc1 inactive

Fill in inhibition for record COc1ccc(-n2nnc(-c3ccccc3)c2C)cc1 26%

Fill in inhibition for record COc1ccc(-n2nnc(-c3ccco3)c2C)cc1 inactive
